Data origin, for the record: paper PMC10126245

Assay: in vitro; further: test concentration or dose not given here
Settings: Chinese hamster
Attribute Measured: viability (%)
Hi! Could you send only the number? It should be in %, unit omitted.

Past entries and their recorded results:
O=C(O)c1cc(O)c(O)c(O)c1 [Gallic acid, reference compound]
93.5
O=c1oc2c(O)c(O)cc3c(=O)oc4c(O)c(O)cc1c4c23
93.2
O=C(CCc1ccc(O)cc1)c1c(O)cc(O)cc1O[C@@H]1O[C@H](CO)[C@@H](O)[C@H](O)[C@H]1O
94.8

Now consider a different compound.
GET /value?item= C[C@@H]1O[C@@H](Oc2c(-c3ccc(O)c(O)c3)oc3cc(O)cc(O)c3c2=O)[C@H](O)[C@H](O)[C@H]1O [Quercetrin, reference compound] &field=viability returns 91
